Target: Avi-KRAS G12D/Q25A (1-169) GppNHp/3×FLAG-PI3KCA (157-299) (Homo sapiens, UniProt P01116, G12D/Q25A)
Construct: Avi-KRAS G12D/Q25A (1-169) GppNHp
Sequence (P01116 1-169 isoform P01116-2 G12D/Q25A limits assumed): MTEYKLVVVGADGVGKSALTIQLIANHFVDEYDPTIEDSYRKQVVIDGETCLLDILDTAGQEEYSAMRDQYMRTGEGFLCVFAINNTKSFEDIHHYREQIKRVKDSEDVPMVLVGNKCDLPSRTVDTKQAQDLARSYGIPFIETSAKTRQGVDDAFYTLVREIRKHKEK
Assay: HTRF PI3KCA-KRAS G12D/Q25A-GppNHp disruption assay
Settings: 1 h incubation
pIC50: −log10 of the molar value.
property-measured: pIC50

> print(dat)
                            compound.string  value.measured
1  CC(C)N(c1nc(OC[C@@H]2CCCN2C)nc2c(F)c(-c3ccc(F)c4sc(N)nc34)c(Cl)cc12)C1CNC1    4.52 to 5.00
2  CCN(c1nc(OC[C@@H]2CCCN2C)nc2c(F)c(-c3ccc(F)c4sc(N)nc34)c(Cl)cc12)C1CNC1    4.52 to 5.00
3  Nc1nc2c(-c3c(C(F)(F)F)cc4c(N5CC6COCC(C5)N6)nc(OC[C@@]56CCCN5C[C@H](F)C6)nc4c3F)ccc(F)c2s1    6.00 to 7.00
